Provenance of the data: ChEMBL document CHEMBL3988442

- test-system: Tyrosyl-tRNA synthetase, putative (Trypanosoma cruzi (strain CL Brener)) (UniProt Q4DSP6)
- Sequence (Q4DSP6 as listed by the source): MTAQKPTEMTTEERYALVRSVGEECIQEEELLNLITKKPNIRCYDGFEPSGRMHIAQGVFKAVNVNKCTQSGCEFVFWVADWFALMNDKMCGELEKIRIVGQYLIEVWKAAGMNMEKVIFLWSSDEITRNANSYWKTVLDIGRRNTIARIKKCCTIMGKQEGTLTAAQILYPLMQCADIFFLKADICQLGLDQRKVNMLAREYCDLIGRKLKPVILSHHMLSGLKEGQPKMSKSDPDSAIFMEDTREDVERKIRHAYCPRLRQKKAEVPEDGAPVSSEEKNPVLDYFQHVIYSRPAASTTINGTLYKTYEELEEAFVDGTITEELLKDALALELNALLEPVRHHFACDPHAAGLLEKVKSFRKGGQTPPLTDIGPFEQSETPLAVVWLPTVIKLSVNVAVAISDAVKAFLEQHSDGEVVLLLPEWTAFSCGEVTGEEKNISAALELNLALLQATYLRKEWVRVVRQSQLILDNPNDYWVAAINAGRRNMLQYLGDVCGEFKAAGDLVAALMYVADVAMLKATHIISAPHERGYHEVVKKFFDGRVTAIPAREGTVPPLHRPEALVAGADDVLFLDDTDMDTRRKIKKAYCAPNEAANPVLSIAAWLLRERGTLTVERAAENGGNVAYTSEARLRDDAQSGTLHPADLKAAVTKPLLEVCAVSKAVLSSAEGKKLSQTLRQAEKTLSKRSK
- experiment-notes: Trypanosoma cruzi tyrosyl tRNA synthetase (TcYRS) SOP
- Type: functional
- Set-up: scale not given: direction of the effect not stated beside the values
- conditions: 30 µM
Record form. Attribute: Percent Effect. Fill in for each entry.
Quick note: number first, unit second.

Complete the entry with Percent Effect for "COCc1nc(CNC2CCSCC2)no1"
9.76%

Complete the entry with Percent Effect for CC(CCc1ccccc1)NC(=O)Nc1cnn(CC(N)=O)c1 (centres undefined)
20.2%

Complete the entry with Percent Effect for "COc1ncnc2c1CCN(c1cc(C(F)(F)F)ncn1)CC2"
7.5%

Complete the entry with Percent Effect for CC(C)N(C)C(=O)C1=NOC2(CCN(C(=O)c3ccccn3)C2)C1 (centres undefined)
16.1%

Complete the entry with Percent Effect for Cc1[nH]ccc1C(=O)N1CCCC(c2nccn2Cc2cscn2)C1 (centres undefined)
17.1%

Complete the entry with Percent Effect for COc1ccc(OCC(=O)NC(C)c2ccc(F)cc2)c(C(=O)O)c1 (centres undefined)
13.6%

Complete the entry with Percent Effect for "O=C(O)[C@@H]1CN(C(=O)c2cc(C3CC3)n[nH]2)C[C@H]1c1cccc(F)c1"
21%

Complete the entry with Percent Effect for COCC1CN(C(=O)c2ccoc2C)Cc2nccn2C1 (centres undefined)
1.28%

Complete the entry with Percent Effect for CNC(=O)c1ccc(C(=O)N2CCCC2c2cnn(C)c2)cn1 (centres undefined)
6.17%

Complete the entry with Percent Effect for Cc1cc(CN2CCCC2c2c(C)nn(C)c2Cl)no1 (centres undefined)
28.4%

Complete the entry with Percent Effect for O=C1NC2(CCN(Cc3cccnc3)CC2)CC1c1ccncc1 (centres undefined)
10.3%

Complete the entry with Percent Effect for "CN1CCN(C(=O)c2cccc(OCc3cscn3)c2)CC1"
6.02%

Complete the entry with Percent Effect for Cc1cc(C)c2nc(CN3CCCC(c4cc[nH]n4)C3)cc(O)c2c1 (centres undefined)
14.6%

Complete the entry with Percent Effect for "CC(C)c1ncc2c(n1)CN(Cc1cccc(OCC(N)=O)c1)CC2"
0%

Complete the entry with Percent Effect for "CCn1ccnc1CN1CCCN(C(=O)c2cccn2C)CC1"
20.5%

Complete the entry with Percent Effect for Cc1cc(CNC2CCCN(c3cccnn3)C2)no1 (centres undefined)
13.6%

Complete the entry with Percent Effect for COc1ccc(C)cc1CN1CCCC1c1noc(C2CC2)n1 (centres undefined)
18.3%

Complete the entry with Percent Effect for CNS(=O)(=O)c1cc(C(=O)NC2CCOc3ccccc32)cc(C)c1C (centres undefined)
7.79%

Complete the entry with Percent Effect for "CCn1cc(S(=O)(=O)N(C)Cc2c(Br)cnn2CC)c(C)n1"
7.5%

Complete the entry with Percent Effect for Fc1cccc(-c2nc(CN3CCCCC3Cn3cncn3)co2)c1 (centres undefined)
13.9%

Complete the entry with Percent Effect for "CCn1ccnc1CN1CCN(CCOc2cccc(C#N)c2)CC1"
19.5%

Complete the entry with Percent Effect for COc1ccc(-c2nc(CN3CCCC3Cn3cccn3)no2)cc1 (centres undefined)
21.9%

Complete the entry with Percent Effect for CCc1nccn1C1CCCN(C(=O)Cc2cn3ccccc3n2)C1 (centres undefined)
10.1%

Complete the entry with Percent Effect for "CCc1[nH]ncc1C(=O)N1CCCN(Cc2cnn(C(C)C)c2)CC1"
13.6%
